Data credit: PubChem BioAssay (NCI)

# procedure-text: NCI Yeast Anticancer Drug Screen. Data for the mlh1 rad18 strain (AID 175)
# test-parameters: S. cerevisiae mlh1 rad18 strain growth inhibition; at 50.0 µM
# Protocol: Growth inhibition of yeast strains with defined genetic alterations is measured as a screen for potential anti-cancer activity. Selected strains with alterations in DNA damage repair or cell cycle control were exposed to compounds and growth inhibition was measured relative to vehicle treated controls. The strain used in this assay is mlh1 rad18
This is part of a sample that, as a whole, favours compounds with a hit. Of some 79,000 tested, about 15% had one in any assay. Active and inactive are the calls of the source. No stated cut-off is given here; in the data, active means growth inhibition above about 70%; inactive means the rest. Residues, ends and D or L forms follow the SMILES beside them. *: point of attachment. CH2Cl = ClC*
Possible outcomes: active, inactive

| compound | qualitative-label |
| --- | --- |
| CN(NC(=O)/C(=C/c1ccc(O)cc1)NC(=O)c1ccccc1)c1ccnc2cc(Cl)ccc12 | active |
| Cn1ncc2cc3c(Nc4ccc(Cl)cc4)cccc3nc21 | inactive |
| COC(=O)CSc1nnc(CSc2ccc(Cl)cc2)n1-c1ccccc1 | inactive |
| COc1ccc2oc(-c3ccc(Cl)cc3)c(N3CCN(C)CC3)c2c1 | inactive |
| COc1ccc(N2C(=O)CC(Cl)C2=O)cc1 (configuration not stated) | active |
| CCOC(=O)CNC(=O)c1[nH]cnc1/N=N/N(C)C | active |
| CCCCCCSc1nc(COC(=O)NC)c(COC(=O)NC)n1C | active |
| CCOC(=O)C1=C(C)NC(C)=C(C(=O)OCC)C1c1ccccc1Cl | active |
| CCNc1ccc2c(c1)C(=O)N(OS(C)(=O)=O)C2=O | active |
| CSc1s[s+]c(SC)c1-c1ccccc1 | active |
| Cc1onc(-c2ccccc2Cl)c1C1=N/C(=C/c2cc(Cl)cc(Cl)c2O)C(=O)O1 | active |
| O=C1NC(c2c(Cl)cccc2Cl)Nc2ccccc21 (configuration not stated) | active |
| COc1ccc(/C=C(\NC(=O)c2ccccc2)C(=O)NN(C)c2ccnc3cc(Cl)ccc23)cc1OC | active |
| C=Cc1cnc([N+](=O)[O-])n1C | active |
| O=C(/C=C/c1cccc2ccccc12)c1ccc(Cl)cc1 | active |
| Cc1ccc(Nc2n[nH]c(=S)s2)cc1 | active |
| CC(=O)NC(CC(C)C)C(=O)NC(Cc1ccccc1)C(=O)CCl (stereo not drawn) (Ac-Leu-Phe-CH2Cl; configuration not given here) | inactive |
| OCCN(CCO)c1ccc2c(c1)Cc1ccccc1-2 | active |
| COc1ccc(N2CN(C)CSC2=S)cc1 | inactive |
| N#Cc1sc2c(c1OC(=O)c1ccco1)c(=O)n(-c1ccccc1)c(=S)n2-c1ccccc1 | active |
| N#C/C(=C\c1ccccc1)c1ccccc1F | inactive |
| CCCCC1=NNC(=O)C1 | inactive |
| CCN(CC)N=Nc1c(C(N)=O)n[nH]c1C | inactive |
| Cc1ccc(N=Nc2ccc(O)c(C)c2)cc1 | active |
| CCC(=O)Oc1ccc(/C=N/NC(N)=S)nc1 | inactive |
| CC(=O)CC(=O)/C=C/c1cccs1 | inactive |
| Clc1c(Cl)c(Cl)c2n[nH]nc2c1Cl | inactive |

----------
# procedure-text: NCI Yeast Anticancer Drug Screen. Data for the wt2 strain (AID 169);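 further: 0% = growth of vehicle-treated yeast cultures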
# test-parameters: S. cerevisiae wt2 strain growth inhibition; at 3.7 µM; hits give high values
This is part of a sample that, as a whole, favours compounds with a hit. Of some 79,000 tested, about 15% had one in any assay.
Measured growth inhibition, listed per entry.
value-type: growth inhibition (%)

| molecule | test-result |
| --- | --- |
| COc1cc(/C=C/c2sc3ccccc3[n+]2C)ccc1N(C)C | -1 |
| OB(O)c1ccccc1C#Cc1ccccc1B(O)O | -3 |
| Nc1nc2c(c(=O)[nH]1)NC(CCNc1ccc(C(=O)O)cc1)CN2 (stereo not given) | 2 |
| COc1cc([C@@H]2c3cc4c(cc3[C@@H](OC3OC5COC(C)OC5C(O)C3O)[C@H]3COC(=O)[C@H]23)OCO4)cc(OC)c1O (stereo not given in full) | -2 |
| Nc1cc(F)cc2c1-c1ccc(F)cc1C2 | 5 |

----------
# procedure-text: NCI Yeast Anticancer Drug Screen. Data for the CLN2oe strain (AID 163);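 further: 0% = growth of vehicle-only control cultures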
# test-parameters: S. cerevisiae CLN2oe strain, at 100.0 µM, hits give high values
The panel holds about 79,000 compounds, 15% with a hit somewhere; the sample as a whole holds those more often.

| compound | growth inhibition [%] |
| --- | --- |
| Cc1ccccc1NC(=O)Cc1csc(N/N=C2\NC(=O)/C(=C/c3cccc([N+](=O)[O-])c3)S2)n1 | 17 |
| CN(Cc1cnc2nc(N)nc(N)c2n1)c1ccc(C(=O)NC(CCC(=O)O)C(=O)O)c2ccccc12 (stereo not given) | 58 |
| CN(NC(=O)/C(=C/c1ccc(O)cc1)NC(=O)c1ccccc1)c1ccnc2cc(Cl)ccc12 | 65 |
| Cc1ccc(S(=O)(=O)Nc2ccc3c(c2)C(O)c2ccccc2-3)cc1 (stereo not given) | 30 |
| Cc1onc(-c2ccccc2Cl)c1C1=N/C(=C/c2cc(Cl)cc(Cl)c2O)C(=O)O1 | 66 |

----------
Each entry below carries its reported growth inhibition.
# procedure-text: NCI Yeast Anticancer Drug Screen. Data for the rad52 strain (AID 147);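 further: 0% = growth of vehicle-treated control cultures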
# test-parameters: S. cerevisiae rad52 mutant growth inhibition; at 33.0 µM; hits give high values
The panel holds about 79,000 compounds, 15% with a hit somewhere; the sample as a whole holds those more often.

| molecule | growth inhibition / % |
| --- | --- |
| CC(C)c1[nH]nc(C(N)=O)c1N=NN(C)C | 87 |
| CCCCOC(=O)CSSCC(=O)OCCCC | 83 |
| Nc1ccc2c(c1)sc1ccccc12 | 30 |
| Cc1cc(Cl)nc2nc(Cl)c(N)cc12 | 16 |
| CCOc1ccc(C(=O)CCC(=O)O)c(C)c1 | -1 |
| CSc1s[s+]c(SC)c1-c1ccccc1 | 54 |
| O=C(NCCCCCN1CCC2(CCCCC2)CC1)C(C1CCCCC1)C1CCCCC1 | 100 |
| Nc1cc(F)cc2c1-c1ccc(F)cc1C2 | 30 |
| S=C(S)NCC1CCC(CNC(=S)S)CC1 (centres undefined) | 20 |
| CNc1ccc(Cc2c[nH]c3ccccc23)cc1 | 4 |
| O=[N+]([O-])c1cc(S(=O)(=O)Nc2ccccc2)ccc1Cl | 89 |
| C=C(C)[C@@H]1CCc2c(O)c(O)c(=O)cc(C)c2C1 | 77 |
| O=C1C=CC(=Nc2ccccc2)c2ccccc21 | 55 |
| Cc1cc(OCc2ccccc2)ccc1[N+](=O)[O-] | 44 |
| Cc1cc(C)c(N2C(=O)CC(Sc3ccccc3N)C2=O)c(C)c1 (centres undefined) | -14 |
| COc1cc(NCc2ccc3nc(N)nc(N)c3c2C)cc(OC)c1OC | 37 |
| CC1CCC2(C(=O)O)CCC3(C)C(=CCC4C5(C)CC(O)C(O)C(C)(CO)C5C(O)CC43C)C2C1C (centres undefined) | -15 |
| CCOC(=O)C(NC(=O)CC)(N1CCN(c2cc3c(cc2F)c(=O)c(C(=O)O)cn3C2CC2)CC1)C(F)(F)F (centres undefined) | 91 |
| O=c1[nH]cc(/C=N\Nc2ccccc2)c(=O)[nH]1 | 56 |
| CCC(NC(C)c1ccccc1)C(=O)c1ccc(OCc2ccccc2)c(OCc2ccccc2)c1 (centres undefined) | 6 |
| O=Nc1ccc(Nc2ccccc2)cc1 | -11 |
| O=C(Nc1ccc2c(c1)Cc1c-2ccc([N+](=O)[O-])c1F)C(F)(F)F | 5 |
| Nc1nc(N)c2c(n1)CCC(S(=O)(=O)c1ccc3ccccc3c1)C2 (centres undefined) | 62 |
| O=C1c2c(O)cccc2-c2nn(CCNCCO)c3ccc(NCCNCCO)c1c23 | 81 |
| CCOP1(=O)C=C(Sc2ccc([N+](=O)[O-])cc2[N+](=O)[O-])C(C)(C)O1 (centres undefined) | 39 |
| [Pt].c1ccc(P(CCP(c2ccccc2)c2ccccc2)CCP(c2ccccc2)c2ccccc2)cc1 | 89 |
| CCCCC1=NNC(=O)C1 | 7 |
| CCCCCCSc1nc(COC(=O)NC)c(COC(=O)NC)n1C | 25 |
| Cc1cccc(/C=N/NC(=S)N(C)CCc2ccccn2)n1 | 99 |
| Clc1nc(C(Cl)Cl)nc2sc3c(c12)CCCC3 | 26 |
| Cn1c2nc3ccccc3c-2nc2ccccc21 | 98 |
| COc1ccc(/C=C2\SC(=S)N(C=C3C(=O)NC(=S)NC3=O)C2=O)cc1OC | 83 |
| CCOC(=O)c1csc(Br)n1 | -5 |
| CC(=O)N1C(=O)/C(=C\C(=O)c2ccc([N+](=O)[O-])cc2)c2ccccc21 | 92 |
| CCOC(=O)C1=C(C)NC(C)=C(C(=O)OCC)C1c1ccc(C)cc1 | 97 |
| c1ccc2c(c1)ccc1c3ccncc3ccc21 | 99 |
| O=C(/C=C/c1cccc(Br)c1)c1ccc(Cl)cc1 | 28 |
| CCOC(=O)Nc1ccc2c(c1)Cc1ccccc1-2 | -5 |
| Cc1cc(C(C)(C)CC(C)(C)C)cc(O)c1O | 96 |
| O=C(NC(=S)Nc1ccccn1)c1ccccc1 | -28 |
| N#C/C(=C/c1c(Cl)cccc1Cl)C(N)=O | 63 |
| CCOC(=O)CNC(=O)c1[nH]cnc1/N=N/N(C)C | 6 |
| N#C/C(=C/N1C(=O)/C(=C/c2ccc([N+](=O)[O-])cc2)SC1=S)c1nc2ccccc2s1 | 36 |
| CCCCCCCCN1C(=O)c2ccccc2C1=O | 10 |
| N#CSC1CCCCNC1=O (centres undefined) | 83 |
| NCc1c(O)ccc2ccccc12 | 64 |
| Oc1ccc(Br)cc1C=NC1CCCCC1 | 95 |
| CO[C@@]12[C@H](COC(N)=O)C3=C(C(=O)C(C)=C(N)C3=O)N1C[C@@H]1N[C@@H]12 | 83 |
| N#C/C(=C\c1ccccc1)c1ccccc1F | -1 |
